Attribution: PubChem BioAssay (NCI)

Quick reference for growth inhibition among some compounds
Assay Protocol: NCI Yeast Anticancer Drug Screen. Data for the cln2 rad14 strain (AID 165);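 note: 0% = growth equal to vehicle treated cultures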
Test Conditions: S. cerevisiae cln2 rad14 strain, at 5.0 µM (retest, dose inferred, filed as 0.5), hits give high values
Compounds without any hit were thinned out: in the full panel of roughly 79,000, 15% have a hit.
The reply should be a number in %, with the unit left off.

-- ask What value of growth inhibition has been reported for the following compound? S=C1NC2=C(COc3ccccc32)C(c2ccc(Cl)cc2)N1 (stereo unspecified)
-- reply 69

-- ask Sample CCCCCCN(CCCCCC)CCCNc1nccc2ccccc12 — what was its growth inhibition?
-- reply -4

-- ask Given the entry CCCCOS(=O)(=O)c1ccccc1 , report its measured growth inhibition.
-- reply 5

-- ask Quick one: growth inhibition of C/C(=N/NC(N)=S)c1ccc(C)cc1 ?
-- reply -11

-- ask Entry under review: Cc1ccc(/C=C2\CNC/C(=C\c3ccc(C)cc3)C2=O)cc1 . Reported growth inhibition?
-- reply 55
